System: A375 cells (parental)
Assay: Kinase inhibitor library screening, PrestoBlue cell viability, 1 or 10 μM, 72 h
Details: A375 Parental, 10μΜ, 72 h; in %
observation_type: cell viability, A375 Parental, 10μΜ

Below are worked cases with known answers.
INSERT INTO assay_data (compound, reported_result) VALUES
  ('O=C1NC(=O)C(c2ccccc2[N+](=O)[O-])=C1Nc1ccc(O)c(Cl)c1', 78.1),
  ('CS(=O)(=O)CCNCc1ccc(-c2ccc3ncnc(Nc4ccc(OCc5cccc(F)c5)c(Cl)c4)c3c2)o1.Cc1ccc(S(=O)(=O)O)cc1.Cc1ccc(S(=O)(=O)O)cc1 [Lapatinib Ditosylate (Tykerb)]', 78.4);

Attention now shifts to the item below.
Data request: So what's the measured cell viability, A375 Parental, 10μΜ for this one? C#Cc1cccc(Nc2ncnc3cc(OCCOC)c(OCCO)cc23)c1 [OSI-420 (Desmethyl Erlotinib)]
Data returned: 54.9
